src = patent US20160185837A1

Biological target: T1, human GIP receptor (hGIPr) (Homo sapiens, UniProt P48546)
T1 construct: expressed in transfected cells
T1 sequence (P48546 22-466): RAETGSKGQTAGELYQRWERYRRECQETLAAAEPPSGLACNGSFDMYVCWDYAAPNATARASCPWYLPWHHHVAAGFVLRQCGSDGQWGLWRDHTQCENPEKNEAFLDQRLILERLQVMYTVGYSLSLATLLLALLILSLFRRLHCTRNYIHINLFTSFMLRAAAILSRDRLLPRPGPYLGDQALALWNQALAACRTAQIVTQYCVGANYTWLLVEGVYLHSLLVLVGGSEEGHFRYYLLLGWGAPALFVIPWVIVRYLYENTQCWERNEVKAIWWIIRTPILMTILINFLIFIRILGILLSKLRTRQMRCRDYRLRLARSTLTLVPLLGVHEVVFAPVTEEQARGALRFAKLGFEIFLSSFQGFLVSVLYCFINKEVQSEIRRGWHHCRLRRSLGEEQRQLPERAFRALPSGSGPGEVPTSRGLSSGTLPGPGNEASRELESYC
Experiment: BSA-cAMP assay, cells expressing human GIP receptor
Format: cell-based
Details: BSA-cAMP assay; batch 1 unless a batch is given; read-out: cAMP activity hGIPr (EC50)
reported_property: EC50 (nM)

Would you please look over these solved cases?
# molecule, units, EC50
data = [
    ("IP203 (protein, /note=“Description of Artificial Sequence Synthetic Peptide-linker-hinge polypeptide”) HGEGTFTSDVSSYLEGQAAKEFIAWLVKGGAAAGGSGSTASSGSGSATGGGGAATHTCPPCPAPEF", "nM", 110),
    ("IP174: isolated polypeptide named in b21; sequence stands in a table not shown here (protein, /note=“Description of Artificial Sequence Synthetic Peptide-linker-hinge polypeptide”) HGEGTFTSDVSSYLEEEAAKEFIAWLVAGGAAAGGSGSTASSGSGSATGGGGAATHTCPPCPAPEF", "nM", 460),
    ("IP176: Fc fusion, IgG1-TM, SEQ ID NO:143; agonist peptide YSEGTFTSDVSSYMERQAISEFIAWLLKGP (protein, also: Fc fusion, IgG1-TM, agonist peptide YSEGTFTSDVSSYMERQAISEFIAWLLKGP) YSEGTFTSDVSSYMERQAISEFIAWLLKGPAAAGGSGSTASSGSGSATGGGGAATHTCPPCPAPEF", "nM", 0.42),
    ("IP187 (protein, /note=“Description of Artificial Sequence Synthetic Peptide-linker-hinge polypeptide”) HGEGTFTSDVSSYLEGQAAKEFIAWLVKGAPPGGGGGSGGGGSGGGGSGGGGSATHTCPPCPAPEF", "nM", 540),
    ("IP188 (protein, /note=“Description of Artificial Sequence Synthetic Peptide-linker-hinge polypeptide”) YSEGTFISDYSIAMDKIHQQDFVNWLLAQKAPPGGGGGSGGGGSGGGGSGGGGSATHTCPPCPAPEF", "nM", 0.0038),
    ("IP226 (protein, /note=“Description of Artificial Sequence Synthetic Peptide-linker-hinge polypeptide”) YSEGTFTSDVSKLLERQAIDEFIAWLLKGGAAAGGSGSTASSGSGSATGGGGAATHTCPPCPAPEF", "nM", 0.025),
    ("IP223 (protein, /note=“Description of Artificial Sequence Synthetic Peptide-linker-hinge polypeptide”) YSEGTFTSDVSSYMEEEAIDEFIAWLLKGGAAAGGSGSTASSGSGSATGGGGAATHTCPPCPAPEF", "nM", 2.5),
    ("IP246: Fc fusion, IgG1-TM, SEQ ID NO:116; agonist peptide YSEGTFTSDYSKLLEGQAAKLFIEWLVKGP (protein, also: Fc fusion, IgG1-TM, agonist peptide YSEGTFTSDYSKLLEGQAAKLFIEWLVKGP) YSEGTFTSDYSKLLEGQAAKLFIEWLVKGPAAAGGSGSTASSGSGSATGGGGAATHTCPPCPAPEF", "nM", 2.2),
    ("IP197 (protein, /note=“Description of Artificial Sequence Synthetic Peptide-linker-hinge polypeptide”) YSEGTFTSDVSSYMERQAIDEFIAWLLAGAAAGGSGSTASSGSGSATGGGGAATHTCPPCPAPEF", "nM", 0.18),
    ("IP247: Fc fusion, IgG1-TM, SEQ ID NO:117; agonist peptide YSEGTFTSDYSKLLEKIHQQLFIEWLVKGP (protein, also: Fc fusion, IgG1-TM, agonist peptide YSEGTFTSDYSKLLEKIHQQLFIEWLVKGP) YSEGTFTSDYSKLLEKIHQQLFIEWLVKGPAAAGGSGSTASSGSGSATGGGGAATHTCPPCPAPEF", "nM", 0.019),
]

1 = IP224 (protein, /note=“Description of Artificial Sequence Synthetic Peptide-linker-hinge polypeptide”) YSEGTFTSDVSSYMERQAIDEFIAWLLGGGAAAGGSGSTASSGSGSATGGGGAATHTCPPCPAPEF
2 = IP015 (protein, /note=“Description of Artificial Sequence Synthetic Peptide-linker-hinge polypeptide”) HGEGTFTSDVSSYLEGQAAKEFIAWLVKGAAAGGSGSTASSGSGSATGGGGAATHTCPPCPAPEF
3 = IP132 (protein, /note=“Description of Artificial Sequence Synthetic Peptide-linker-hinge polypeptide”) HGEGTFTSDVSSYLEGQAAKEFIAWLVKGGGGGGSGGGGSGGGGSGGGGSATHTCPPCPAPEF
Q: Arrange these 3 molecules in increasing order of EC50. Answer with the labels in sequence, matching the requested order.
Result: 1, 2, 3
